# target: T1, recombinant human IL-23R/Fc chimera (R&D Systems) (human, UniProt Q5VWK5 24-355)
# T1 construct: Bought; also called rhIL23RFc
# T1 sequence (looked up): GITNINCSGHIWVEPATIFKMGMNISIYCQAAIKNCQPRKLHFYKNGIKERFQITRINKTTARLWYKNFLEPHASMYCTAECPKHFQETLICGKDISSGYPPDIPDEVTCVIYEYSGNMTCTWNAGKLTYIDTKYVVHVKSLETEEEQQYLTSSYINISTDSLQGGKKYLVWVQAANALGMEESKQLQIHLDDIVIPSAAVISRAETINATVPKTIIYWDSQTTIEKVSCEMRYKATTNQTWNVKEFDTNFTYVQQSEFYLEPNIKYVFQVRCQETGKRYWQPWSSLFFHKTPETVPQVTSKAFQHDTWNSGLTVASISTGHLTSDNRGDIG
# measurementProtocol: SPR
Ka values, listed per item

Below, each entry is followed by its recorded Ka result.
001-89.C3C ATRIMER complex (designed binder, not shown: C-terminal tag: His/Myc (pANA4) or HA-StrepII (pANA10)) EPPTQKPKKIVNAKKDVVNTKMFEELKSRLDTLAQEVALLKEQQALQTVCLKGTKVHMKCFLAFTQTKTFHEASEDCISRGGTLSTPQTGSENDALYEYLRQSVGNEAEIWLGLNANRRRTMWVDMTGARIAYKNWETEITAQPDGGMGVWGENCAVLSGAANGKWFDKRCRDQLPYICQFGIV	1.2e+08 M⁻¹
001-89.C3C monomeric CTLD (designed binder, C-terminal tag not specified) ALQTVCLKGTKVHMKCFLAFTQTKTFHEASEDCISRGGTLSTPQTGSENDALYEYLRQSVGNEAEIWLGLNANRRRTMWVDMTGARIAYKNWETEITAQPDGGMGVWGENCAVLSGAANGKWFDKRCRDQLPYICQFGIV	5.34e+06 M⁻¹

The binder identified as 001-69.4F5 monomeric CTLD (designed binder, C-terminal tag not specified; not shown: Also the vector's N-terminal AGGGS after the pelB signal) ALQTVCLKGTKVHMKCFLAFTQTKTFHEASEDCISRGGTLSTPQTGSENDALYEYLRQSVGNEAEIWLGLNVLGWRREWVDMTGARIAYKNWETEITAQPDGGLVMPMENCAVLSGAANGKWFDKRCRDQLPYICQFGIV registered its Ka at 4.12e+06 M⁻¹
